Listing of recorded EC50 by entry.
- TARGET_ENTITY: μ-opioid receptor (Homo sapiens)
- EXPERIMENT_DESCRIPTION: μ-opioid receptor [35S]GTPγS functional assay, HEK-293 or CHO cells
- Assay type: biochemical
Entry rule: numbers only, all in µM.

Some compounds with recorded EC50:
CN1CC[C@]23C[C@H](OCCO)C[C@@H](O)[C@@H]2[C@H]1Cc1ccc(O)cc13	1.96
COc1ccc2c(c1)[C@]13CCN(CC4CC4)[C@H](C2)[C@]1(O)CC[C@H](O)C3	6.14
CC(C)CCCC(=O)N[C@H]1C[C@@]2(O)[C@H]3Cc4ccc(O)cc4[C@@]2(CCN3CC2CC2)C[C@H]1O	0.0547

Exercise: Please give the measured EC50 for this compound: CC(C)CN[C@H]1CC[C@]23CCN(CC4CC4)[C@H](Cc4ccc(O)cc42)[C@]3(O)C1
Solution: 0.0202

Exercise: Please give the measured EC50 for this compound: COc1ccc2c(c1)[C@@]13CC[C@H](NC(=O)C(C)C)C[C@@]1(O)[C@@H](C2)N(CC1CC1)CC3
Solution: 0.308

Exercise: Please give the measured EC50 for this compound: COc1ccc2c(c1)[C@]13CCN(CC4CC4)[C@H](C2)[C@]1(O)C[C@H](C)[C@H](O)C3
Solution: 2.75

Exercise: Please give the measured EC50 for this compound: COc1ccc2c(c1)[C@]13CCN(CC4CC4)[C@H](C2)[C@]12C[C@H](OCc1ccccc1)[C@H](C3)O2
Solution: 1.52

Exercise: Please give the measured EC50 for this compound: COc1ccc2c(c1)[C@]13CCN(CC4CC4)[C@H](C2)[C@]1(O)C[C@H](CO)[C@H](O)C3
Solution: 4.91

* * *

- TARGET_ENTITY: μ-opioid receptor (Homo sapiens, UniProt P35372)
- Sequence (P35372 whole entry, species assumed): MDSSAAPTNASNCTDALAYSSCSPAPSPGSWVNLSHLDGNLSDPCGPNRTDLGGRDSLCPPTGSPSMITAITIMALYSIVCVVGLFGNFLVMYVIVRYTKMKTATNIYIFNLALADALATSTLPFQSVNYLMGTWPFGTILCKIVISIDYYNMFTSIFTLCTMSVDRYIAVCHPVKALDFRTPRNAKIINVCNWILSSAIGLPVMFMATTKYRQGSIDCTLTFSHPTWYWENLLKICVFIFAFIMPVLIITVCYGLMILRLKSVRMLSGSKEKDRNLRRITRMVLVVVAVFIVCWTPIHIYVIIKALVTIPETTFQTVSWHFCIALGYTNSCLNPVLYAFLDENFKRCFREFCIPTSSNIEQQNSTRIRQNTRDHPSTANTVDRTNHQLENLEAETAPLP
- EXPERIMENT_DESCRIPTION: μ-opioid receptor [35S]GTPγS functional assay, HEK-293 or CHO cells
- Format: biochemical
- CONDITION_SET: HEK-293 or CHO cells; relative to DAMGO
REPORTED_PROPERTY: Emax (%)
Entry rule: numbers only, all in %.

Exercise: Please give the measured Emax for this compound: CN1CC[C@]23C[C@@H](OCCO)C[C@@H](O)[C@@H]2[C@H]1Cc1ccc(O)cc13
Solution: 36.3

Exercise: Please give the measured Emax for this compound: CCN[C@H]1C[C@@]2(O)[C@H]3Cc4ccc(O)cc4[C@@]2(CCN3C)C[C@@H]1O
Solution: 9.47

Exercise: Please give the measured Emax for this compound: CC(C)CCCC(=O)N[C@H]1C[C@@]2(O)[C@H]3Cc4ccc(O)cc4[C@@]2(CCN3C)CC1O (stereo partly shown)
Solution: 82.3

Exercise: Please give the measured Emax for this compound: CN1CC[C@]23C[C@@H](O)[C@@H](NC(=O)c4ccccc4)C[C@@]2(O)[C@H]1Cc1ccc(O)cc13
Solution: 48.4

Exercise: Please give the measured Emax for this compound: CC(C)C(=O)N[C@H]1C[C@H]2[C@H]3Cc4ccc(O)cc4[C@@]2(CCN3CC2CC2)C[C@H]1O
Solution: 8.61

Exercise: Please give the measured Emax for this compound: CC(C)CCC(=O)N[C@H]1C[C@@]2(O)[C@H]3Cc4ccc(O)cc4[C@@]2(CCN3C)CC1O (stereo partly shown)
Solution: 77

* * *

- TARGET_ENTITY: UniProt P35372
- EXPERIMENT_DESCRIPTION: μ-opioid receptor [35S]GTPγS functional assay, HEK-293 or CHO cells
- Assay type: biochemical
- CONDITION_SET: HEK-293 or CHO cells; relative to DAMGO
// assign label 1 if Emax falls strictly below 20%, else label 0 (ties count as label 0)

CC(C)CCCC(=O)N[C@H]1C[C@@]2(O)[C@H]3Cc4ccc(O)cc4[C@@]2(CCN3CC2CC2)CC1O (stereo partly shown) [Compound 63]	label 0
O=C1C=C2[C@H]3Cc4ccc(O)cc4[C@]2(CC1)CCN3CC1CC1 [Compound 68]	label 1
N=C(N)NCCN[C@@H]1CC[C@@]2(O)[C@H]3Cc4ccc(O)cc4[C@@]2(CCN3CC2CC2)C1 [Compound 12]	label 1

Exercise: Please let me know if CN(C)[C@@H]1CC[C@@]2(O)[C@H]3Cc4ccc(O)cc4[C@@]2(CCN3C)C1 [Compound 107] shows Emax below 20%.
Solution: label 0

Exercise: Please let me know if COc1ccc2c(c1)[C@]13CCN(CC4CC4)[C@H](C2)[C@]1(O)C[C@H](CO)[C@H](O)C3 [Compound 7] shows Emax below 20%.
Solution: label 0

* * *

- TARGET_ENTITY: μ-opioid receptor (Homo sapiens)
- EXPERIMENT_DESCRIPTION: μ-opioid receptor [35S]GTPγS functional assay, HEK-293 or CHO cells
- Assay type: biochemical
- CONDITION_SET: HEK-293 or CHO cells; relative to DAMGO
- Procedure: [^35S]GTPγS functional assays were conducted using freshly thawed μ-receptor membranes prepared in-house from a cell line expressing recombinant opioid receptor in a HEK-293, CHO or U-2 OS cell background, or purchased from a commercial source (Perkin Elmer, Shelton, Conn.; or DiscovRx, Fremont, Calif.). […] BetaScint scintillation cocktail (Perkin Elmer, Shelton, Conn.) was added (50 μl/well) and plates were counted using a Packard Top-Count for 1 min/well. […]
REPORTED_PROPERTY: Emax (%)
Entry rule: numbers only, all in %.

N=C(N)NCCCN[C@@H]1CC[C@@]2(O)[C@H]3Cc4ccc(O)cc4[C@@]2(CCN3CC2CC2)C1	11.3
CC(C)CN[C@H]1CC[C@]23CCN(CC4CC4)[C@H](Cc4ccc(O)cc42)[C@]3(O)C1	16.6
COc1ccc2c(c1)[C@]13CCN(CC4CC4)[C@H](C2)[C@]1(O)C[C@H](C)[C@H](O)C3	58.7
CN1CC[C@]23CC(O)[C@@H](CC4CCCC4)C[C@@]2(O)[C@H]1Cc1ccc(O)cc13 (some centres unmarked)	42.7

Exercise: Record lookup: for μ-opioid receptor (Homo sapiens), what Emax belongs to CN[C@H]1C[C@@]2(O)[C@H]3Cc4ccc(O)cc4[C@@]2(CCN3C)C[C@H]1O ?
Solution: 28.9
